Measured pIC50, listed per entry.
target: PI3Kα (Homo sapiens, UniProt P42336, H1047R); test: ADP-Glo IC50 assay; conditions: class symbols; key not given
Sequence (P42336 whole entry H1047R): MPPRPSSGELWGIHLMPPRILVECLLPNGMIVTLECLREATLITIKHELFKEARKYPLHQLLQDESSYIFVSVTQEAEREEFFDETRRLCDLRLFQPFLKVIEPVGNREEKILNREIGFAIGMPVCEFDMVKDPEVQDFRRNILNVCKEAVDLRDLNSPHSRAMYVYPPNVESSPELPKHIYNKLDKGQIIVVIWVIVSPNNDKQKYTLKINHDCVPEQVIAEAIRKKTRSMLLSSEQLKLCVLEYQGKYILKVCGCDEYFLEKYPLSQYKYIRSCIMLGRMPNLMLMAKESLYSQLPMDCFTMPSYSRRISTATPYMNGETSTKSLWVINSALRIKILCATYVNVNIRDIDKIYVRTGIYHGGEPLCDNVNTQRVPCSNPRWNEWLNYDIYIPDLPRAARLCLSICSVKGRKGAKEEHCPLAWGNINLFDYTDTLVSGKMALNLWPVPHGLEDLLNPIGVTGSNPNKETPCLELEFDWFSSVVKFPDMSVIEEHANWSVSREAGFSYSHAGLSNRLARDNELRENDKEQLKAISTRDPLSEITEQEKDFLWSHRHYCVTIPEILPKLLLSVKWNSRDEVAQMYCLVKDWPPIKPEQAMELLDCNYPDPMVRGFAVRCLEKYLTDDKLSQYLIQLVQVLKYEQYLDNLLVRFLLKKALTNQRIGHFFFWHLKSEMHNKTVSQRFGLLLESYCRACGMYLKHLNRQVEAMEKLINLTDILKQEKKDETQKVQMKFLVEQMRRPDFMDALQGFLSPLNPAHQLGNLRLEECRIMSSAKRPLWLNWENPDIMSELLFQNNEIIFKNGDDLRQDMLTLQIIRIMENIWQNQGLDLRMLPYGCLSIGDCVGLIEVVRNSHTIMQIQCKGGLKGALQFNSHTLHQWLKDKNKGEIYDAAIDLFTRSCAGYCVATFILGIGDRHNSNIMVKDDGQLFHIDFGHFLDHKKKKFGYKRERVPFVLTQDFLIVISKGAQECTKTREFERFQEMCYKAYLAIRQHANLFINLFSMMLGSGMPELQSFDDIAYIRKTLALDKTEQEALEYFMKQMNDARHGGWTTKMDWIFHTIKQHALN
Sequence (P27986 whole entry partner): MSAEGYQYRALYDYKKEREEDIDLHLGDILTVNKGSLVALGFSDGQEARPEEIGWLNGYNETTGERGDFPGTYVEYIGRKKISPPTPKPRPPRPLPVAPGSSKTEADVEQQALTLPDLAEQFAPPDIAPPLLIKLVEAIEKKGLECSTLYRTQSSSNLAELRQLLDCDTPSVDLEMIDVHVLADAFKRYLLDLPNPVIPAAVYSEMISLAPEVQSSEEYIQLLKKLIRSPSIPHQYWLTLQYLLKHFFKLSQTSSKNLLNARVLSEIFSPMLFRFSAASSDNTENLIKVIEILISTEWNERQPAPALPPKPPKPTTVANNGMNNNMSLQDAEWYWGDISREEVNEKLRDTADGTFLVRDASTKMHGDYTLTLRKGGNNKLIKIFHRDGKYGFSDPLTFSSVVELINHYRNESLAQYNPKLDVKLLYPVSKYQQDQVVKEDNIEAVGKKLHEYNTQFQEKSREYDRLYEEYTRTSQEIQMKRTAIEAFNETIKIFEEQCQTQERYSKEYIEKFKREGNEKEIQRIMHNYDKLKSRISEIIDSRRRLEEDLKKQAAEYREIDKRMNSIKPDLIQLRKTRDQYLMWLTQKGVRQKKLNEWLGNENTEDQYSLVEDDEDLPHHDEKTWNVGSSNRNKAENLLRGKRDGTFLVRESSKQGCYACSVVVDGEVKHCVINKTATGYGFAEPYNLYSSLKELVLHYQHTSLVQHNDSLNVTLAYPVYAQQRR
pIC50: −log10 of the molar value.

Use these answered entries as a reference point.
Cc1cc([C@H](C)Nc2ccccc2C(=O)O)c2oc(N3CCN(C(=O)CCOCCNc4cccc5c4C(=O)N(C4CCC(=O)NC4=O)C5=O)CC3)cc(=O)c2c1 (stereo partly drawn) : 5.00 to 6.00
Cc1ccccc1Nc1ncc(C(=O)NCCCCNc2cccc3c2C(=O)N(C2CCC(=O)NC2=O)C3=O)cc1NC(=O)c1csc2ccccc12 (stereo not drawn) : 6.30 to 7.00

Prompt: Fill in the recorded pIC50 for this molecule, with PI3Kα (Homo sapiens, UniProt P42336, H1047R) as test system: Cc1cc(Br)c2oc(N3CCN(C(=O)CCCCCNC(=O)c4cnc(Nc5ccccc5C)c(NC(=O)c5csc6ccccc56)c4)CC3)cc(=O)c2c1
Response: 6.30 to 7.00

====

biological target: PI3Kα (Homo sapiens, UniProt P42336, H1047R); experiment: ADP-Glo IC50 assay; format: biochemical; settings: class symbols; key not given
Reported values of IC50 for individual entries

COC(=O)CCCCCCCCCNC(=O)c1cnc(Nc2ccccc2C)c(NC(=O)c2csc3ccccc23)c1 : 500 to 1000 nM

Prompt: Need IC50 of O=C(CCCCCCCNC(=O)c1cc(NC(=O)c2cc(F)cc(C(F)(F)F)c2)c2c(c1)C(=O)N[C@@H]2c1cc(F)ccc1Cl)NCc1ccc2c(c1)CN(C1CCC(=O)NC1=O)C2=O (stereo partly drawn) , thanks.
Response: 500 to 1000 nM

Prompt: Need IC50, item Cc1cc([C@H](C)Nc2ccccc2C(=O)O)c2oc(N3CCN(C(=O)CCNc4ccc5c(c4)C(=O)N(C4CCC(=O)NC4=O)C5=O)CC3)cc(=O)c2c1 (stereo partly drawn)
Response: 1000 to 10000 nM

Prompt: Could you tell me which IC50 is on file for Cc1ccccc1Nc1ncc(C(=O)Nc2ccc(N3CCN(c4ccc5c(c4)C(=O)N(C4CCC(=O)NC4=O)C5=O)CC3)cc2)cc1NC(=O)c1csc2ccccc12 (stereo not drawn) ?
Response: 100 to 500 nM

Prompt: Would you mind telling me what IC50 value was observed for O=C1CCC(N2Cc3cc(C(=O)NCCCCCCCCNC(=O)c4cc(NC(=O)c5cccc(C(F)(F)F)c5)c5c(c4)C(=O)N[C@H]5c4cc(F)ccc4Cl)ccc3C2=O)C(=O)N1 (stereo partly drawn) ?
Response: < 100 nM

Prompt: May I ask what IC50 has been recorded for Cc1cc([C@@H](C)Nc2ccccc2C(=O)O)c2oc(N3CCN(C(=O)CCNc4ccc5c(c4)C(=O)N(C4CCC(=O)NC4=O)C5=O)CC3)cc(=O)c2c1 (stereo partly drawn) ?
Response: 500 to 1000 nM

====

# pIC50 values compiled below
molecular target: PI3Kα (Homo sapiens, UniProt P42336, H1047R); assay: ADP-Glo IC50 assay; type: biochemical; details: class symbols; key not given
pIC50: −log10 of the molar value.

Recorded results for 2 compounds are shown here.
Cc1cc([C@H](C)Nc2ccccc2C(=O)O)c2oc(N3CCN(C(=O)CCNc4cccc5c4C(=O)N(C4CCC(=O)NC4=O)C5=O)CC3)cc(=O)c2c1 (stereo partly drawn) [Example I-134] : 5.00 to 6.00
Cc1ccccc1Nc1ncc(C(=O)NCCOCCOCCOCCOCCOCCOCCC(=O)N[C@H](C(=O)N2C[C@H](O)C[C@H]2C(=O)N[C@@H](C)c2ccc(-c3scnc3C)cc2)C(C)(C)C)cc1NC(=O)c1csc2ccccc12 [Example I-33] : 5.00 to 6.00

Shift focus to the following entry.
Prompt: Recorded pIC50 for Cc1ccccc1Nc1ncc(C(=O)NCCCCCCCCNc2ccc3c(c2)C(=O)N(C2CCC(=O)NC2=O)C3=O)cc1NC(=O)c1csc2ccccc12 (stereo not drawn) [Example I-16] with PI3Kα (Homo sapiens, UniProt P42336, H1047R), please?
Response: 6.30 to 7.00

====

IC50 by entry:
molecular target: PI3Kα (Homo sapiens, UniProt P42336, H1047R); assay: ADP-Glo IC50 assay; conditions: class symbols; key not given

Please review the entries below; each comes with its answer.
O=C1CCC(N2Cc3cc(C(=O)NCCCCCCCCCNC(=O)c4cc(NC(=O)c5cccc(C(F)(F)F)c5)c5c(c4)C(=O)N[C@H]5c4cc(F)ccc4Cl)ccc3C2=O)C(=O)N1 (stereo partly shown) : 500 to 1000 nM
Cc1ncsc1-c1ccc(CNC(=O)[C@@H]2C[C@@H](O)CN2C(=O)[C@@H](NC(=O)CCCCCCCCCNC(=O)c2cc(NC(=O)c3cc(F)cc(C(F)(F)F)c3)c3c(c2)C(=O)N[C@@H]3c2cc(F)ccc2Cl)C(C)(C)C)cc1 : < 100 nM
Cc1ccccc1Nc1ncc(C(=O)NCCOCCOCCOCCC(=O)N[C@H](C(=O)N2C[C@H](O)C[C@H]2C(=O)NCc2ccc(-c3scnc3C)cc2)C(C)(C)C)cc1NC(=O)c1csc2ccccc12 : 1000 to 10000 nM
Cc1ncsc1-c1ccc([C@H](C)NC(=O)[C@@H]2C[C@@H](O)CN2C(=O)[C@@H](NC(=O)CCCCCCCCCNC(=O)c2cc(NC(=O)c3cc(F)cc(C(F)(F)F)c3)c3c(c2)C(=O)N[C@H]3c2cc(F)ccc2Cl)C(C)(C)C)cc1 : 500 to 1000 nM
Cc1ccccc1Nc1ncc(C(=O)NCCCCNc2ccc3c(c2)C(=O)N(C2CCC(=O)NC2=O)C3=O)cc1NC(=O)c1csc2ccccc12 (stereo not shown) : < 100 nM

Now take the following compound into account.
Prompt: What does the data say about its IC50? Entry: O=C1CCC(N2Cc3cc(C(=O)NCCCCCCCCCNC(=O)c4cnc(Nc5cc(F)ccc5Cl)c(NC(=O)c5csc6ccccc56)c4)ccc3C2=O)C(=O)N1 (stereo not shown)
Response: 500 to 1000 nM

====

target: PI3Kα (Homo sapiens, UniProt P42336, H1047R); assay: ADP-Glo IC50 assay; details: class symbols; key not given
pIC50: −log10 of the molar value.
Quantity Kind: pIC50

Please review the entries below; each comes with its answer.
Cc1cc(Br)c2oc(N3CCN(C(=O)CCCCCCCCNC(=O)c4cnc(Nc5ccccc5C)c(NC(=O)c5csc6ccccc56)c4)CC3)cc(=O)c2c1 [Example I-78] : 6.30 to 7.00
Cc1ccccc1Nc1ncc(C(=O)NCCCCCCCCCC(=O)O)cc1NC(=O)c1csc2ccccc12 [Example I-25] : > 7.00

// moving on: another record for pIC50
Prompt: What measured pIC50 goes with O=C(O)CCCCCCCCCNC(=O)c1cc(NC(=O)c2cc(F)cc(C(F)(F)F)c2)c2c(c1)C(=O)N[C@H]2c1cc(F)ccc1Cl [Example I-86] ?
Response: 5.00 to 6.00

====

compounds and their reported IC50
target: PI3Kα (Homo sapiens, UniProt P42336, H1047R); assay: ADP-Glo IC50 assay; conditions: class symbols; key not given

Consider the worked cases shown below.
Cc1cc([C@H](C)Nc2ccccc2C(=O)O)c2oc(N3CCN(C(=O)CCCCCCNc4ccc5c(c4)C(=O)N(C4CCC(=O)NC4=O)C5=O)CC3)cc(=O)c2c1 (stereo partly drawn) : 1000 to 10000 nM
O=C1CCC(N2Cc3cc(C#CCNC(=O)c4cnc(Nc5cc(F)ccc5Cl)c(NC(=O)c5csc6ccccc56)c4)ccc3C2=O)C(=O)N1 (stereo not drawn) : < 100 nM

Prompt: Please provide the recorded IC50 for O=C1CCC(N2C(=O)c3ccc(NCCCNC(=O)c4cc(NC(=O)c5cc(F)cc(C(F)(F)F)c5)c5c(c4)C(=O)N[C@H]5c4cc(F)ccc4Cl)cc3C2=O)C(=O)N1 (stereo partly drawn) , tested on PI3Kα (Homo sapiens, UniProt P42336, H1047R).
Response: < 100 nM

Prompt: Please state recorded IC50 (tested on PI3Kα (Homo sapiens, UniProt P42336, H1047R)) of Cc1ccccc1Nc1ncc(C(=O)NCCCCCCCCNC(=O)c2ccc3c(c2)CN(C2CCC(=O)NC2=O)C3=O)cc1NC(=O)c1csc2ccccc12 (stereo not drawn)
Response: 100 to 500 nM

Prompt: Quick check: IC50 on PI3Kα (Homo sapiens, UniProt P42336, H1047R), item O=C1CCC(N2C(=O)c3ccc(NCCOCCOCCOCCOCCOCCOCCOCCOCCOCCOCCOCCOCCNC(=O)c4cc(NC(=O)c5cc(F)cc(C(F)(F)F)c5)c5c(c4)C(=O)N[C@H]5c4cc(F)ccc4Cl)cc3C2=O)C(=O)N1 (stereo partly drawn) ?
Response: < 100 nM

Prompt: Give IC50 (PI3Kα (Homo sapiens, UniProt P42336, H1047R)) of the following compound: NC(=O)CCCCCCCCCNC(=O)c1cnc(Nc2cc(F)ccc2Cl)c(NC(=O)c2csc3ccccc23)c1
Response: 100 to 500 nM

Prompt: Lab note: need IC50 for O=C1CCC(N2C(=O)c3ccc(NCCCNC(=O)c4cnc(Nc5cc(F)ccc5Cl)c(NC(=O)c5csc6ccccc56)c4)cc3C2=O)C(=O)N1 (stereo not drawn) on PI3Kα (Homo sapiens, UniProt P42336, H1047R), anyone have it?
Response: 100 to 500 nM

Prompt: Please tell me: IC50 of Cc1cc([C@@H](C)Nc2ccccc2C(=O)O)c2oc(N3CCN(C(=O)CCNc4cccc5c4C(=O)N(C4CCC(=O)NC4=O)C5=O)CC3)cc(=O)c2c1 (stereo partly drawn) , system PI3Kα (Homo sapiens, UniProt P42336, H1047R)?
Response: 500 to 1000 nM

Prompt: Which measured IC50 belongs to O=C1CCC(N2C(=O)c3ccc(NCCCCCCCNC(=O)c4cc(NC(=O)c5cc(F)cc(C(F)(F)F)c5)c5c(c4)C(=O)N[C@H]5c4cc(F)ccc4Cl)cc3C2=O)C(=O)N1 (stereo partly drawn) , tested on PI3Kα (Homo sapiens, UniProt P42336, H1047R)?
Response: < 100 nM

Prompt: # value lookup — system PI3Kα (Homo sapiens, UniProt P42336, H1047R), readout IC50, item Cc1ccccc1Nc1ncc(C(=O)NCCCCCCCCCC(=O)NCc2ccc3c(c2)CN(C2CCC(=O)NC2=O)C3=O)cc1NC(=O)c1csc2ccccc12 (stereo not drawn)
Response: 100 to 500 nM

Prompt: IC50 of Cc1ccccc1Nc1ncc(C(=O)NCCOCCOCCOCCOCCOCCOCCC(=O)NCc2ccc3c(c2)CN(C2CCC(=O)NC2=O)C3=O)cc1NC(=O)c1csc2ccccc12 (stereo not drawn) on PI3Kα (Homo sapiens, UniProt P42336, H1047R)?
Response: 10000 to 100000 nM

Prompt: Find the measured IC50: item Cc1cc(Br)c2oc(N3CCN(C(=O)CCCCCCCCCNC(=O)c4cnc(Nc5ccccc5C)c(NC(=O)c5csc6ccccc56)c4)CC3)cc(=O)c2c1 , target or system PI3Kα (Homo sapiens, UniProt P42336, H1047R).
Response: 100 to 500 nM

Prompt: # get_value(readout= IC50, system= PI3Kα (Homo sapiens, UniProt P42336, H1047R)) for O=C1CCC(N2Cc3cc(C(=O)NCCCCCCCCCNC(=O)c4cc(NC(=O)c5cc(F)cc(C(F)(F)F)c5)c5c(c4)C(=O)N[C@@H]5c4cc(F)ccc4Cl)ccc3C2=O)C(=O)N1 (stereo partly drawn)
Response: 1000 to 10000 nM

Prompt: Query for PI3Kα (Homo sapiens, UniProt P42336, H1047R): what IC50 does the record show for Cc1cc([C@@H](C)Nc2ccccc2C(=O)O)c2oc(N3CCN(C(=O)CCOCCOCCNC(=O)c4cnc(Nc5ccccc5C)c(NC(=O)c5csc6ccccc56)c4)CC3)cc(=O)c2c1 ?
Response: < 100 nM

Prompt: Recorded IC50 for Cc1ccccc1Nc1ncc(C(=O)NCCCCCNc2cccc3c2C(=O)N(C2CCC(=O)NC2=O)C3=O)cc1NC(=O)c1csc2ccccc12 (stereo not drawn) with PI3Kα (Homo sapiens, UniProt P42336, H1047R), please?
Response: 100 to 500 nM

Prompt: Find the measured IC50: item Cc1ccccc1Nc1ncc(C(=O)NCCCCCCCC(=O)N[C@H](C(=O)N2C[C@H](O)C[C@H]2C(=O)N[C@@H](C)c2ccc(-c3scnc3C)cc2)C(C)(C)C)cc1NC(=O)c1csc2ccccc12 , target or system PI3Kα (Homo sapiens, UniProt P42336, H1047R).
Response: 100 to 500 nM

Prompt: GET /values?readout=IC50&system=PI3Kα (Homo sapiens, UniProt P42336, H1047R)&item= Cc1cc([C@@H](C)Nc2ccccc2C(=O)O)c2oc(N3CCN(C(=O)CCC(=O)NCc4ccc5c(c4)C(=O)N(C4CCC(=O)NC4=O)C5)CC3)cc(=O)c2c1 (stereo partly drawn)
Response: 1000 to 10000 nM

Prompt: Short answer please: IC50, PI3Kα (Homo sapiens, UniProt P42336, H1047R), entry Cc1ccccc1Nc1ncc(C(=O)NCCCCCCCCCC(=O)N[C@H](C(=O)N2C[C@H](O)C[C@H]2C(=O)N[C@@H](C)c2ccc(-c3scnc3C)cc2)C(C)(C)C)cc1NC(=O)c1csc2ccccc12
Response: 100 to 500 nM

Prompt: Record O=C1CCC(N2C(=O)c3ccc(NCCCCNC(=O)c4cc(NC(=O)c5cc(F)cc(C(F)(F)F)c5)c5c(c4)C(=O)N[C@H]5c4cc(F)ccc4Cl)cc3C2=O)C(=O)N1 (stereo partly drawn) : what is its IC50 with PI3Kα (Homo sapiens, UniProt P42336, H1047R)?
Response: < 100 nM

Prompt: What is its IC50 for PI3Kα (Homo sapiens, UniProt P42336, H1047R)? Entry: Cc1ccccc1Nc1ncc(C(=O)NCCOCCOCCOCCC(=O)N[C@H](C(=O)N2C[C@H](O)C[C@H]2C(=O)N[C@@H](C)c2ccc(-c3scnc3C)cc2)C(C)(C)C)cc1NC(=O)c1csc2ccccc12
Response: 1000 to 10000 nM

Prompt: Kindly state the measured IC50 obtained for O=C(CCCCCCCNC(=O)c1cc(NC(=O)c2cc(F)cc(C(F)(F)F)c2)c2c(c1)C(=O)N[C@H]2c1cc(F)ccc1Cl)NCc1ccc2c(c1)CN(C1CCC(=O)NC1=O)C2=O (stereo partly drawn) with PI3Kα (Homo sapiens, UniProt P42336, H1047R).
Response: < 100 nM
